# EXPERIMENTAL_SYSTEM: T1, rat collagen (acid soluble, type I, rat tail, Upstate 08-115) (rat, UniProt P02454 152-1207; P02466 86-1125)
# T1 construct: also called dried rat collagen; insoluble rat collagen
# T1 sequence (P02454 152-1207 limits assumed, chain 1 of 2): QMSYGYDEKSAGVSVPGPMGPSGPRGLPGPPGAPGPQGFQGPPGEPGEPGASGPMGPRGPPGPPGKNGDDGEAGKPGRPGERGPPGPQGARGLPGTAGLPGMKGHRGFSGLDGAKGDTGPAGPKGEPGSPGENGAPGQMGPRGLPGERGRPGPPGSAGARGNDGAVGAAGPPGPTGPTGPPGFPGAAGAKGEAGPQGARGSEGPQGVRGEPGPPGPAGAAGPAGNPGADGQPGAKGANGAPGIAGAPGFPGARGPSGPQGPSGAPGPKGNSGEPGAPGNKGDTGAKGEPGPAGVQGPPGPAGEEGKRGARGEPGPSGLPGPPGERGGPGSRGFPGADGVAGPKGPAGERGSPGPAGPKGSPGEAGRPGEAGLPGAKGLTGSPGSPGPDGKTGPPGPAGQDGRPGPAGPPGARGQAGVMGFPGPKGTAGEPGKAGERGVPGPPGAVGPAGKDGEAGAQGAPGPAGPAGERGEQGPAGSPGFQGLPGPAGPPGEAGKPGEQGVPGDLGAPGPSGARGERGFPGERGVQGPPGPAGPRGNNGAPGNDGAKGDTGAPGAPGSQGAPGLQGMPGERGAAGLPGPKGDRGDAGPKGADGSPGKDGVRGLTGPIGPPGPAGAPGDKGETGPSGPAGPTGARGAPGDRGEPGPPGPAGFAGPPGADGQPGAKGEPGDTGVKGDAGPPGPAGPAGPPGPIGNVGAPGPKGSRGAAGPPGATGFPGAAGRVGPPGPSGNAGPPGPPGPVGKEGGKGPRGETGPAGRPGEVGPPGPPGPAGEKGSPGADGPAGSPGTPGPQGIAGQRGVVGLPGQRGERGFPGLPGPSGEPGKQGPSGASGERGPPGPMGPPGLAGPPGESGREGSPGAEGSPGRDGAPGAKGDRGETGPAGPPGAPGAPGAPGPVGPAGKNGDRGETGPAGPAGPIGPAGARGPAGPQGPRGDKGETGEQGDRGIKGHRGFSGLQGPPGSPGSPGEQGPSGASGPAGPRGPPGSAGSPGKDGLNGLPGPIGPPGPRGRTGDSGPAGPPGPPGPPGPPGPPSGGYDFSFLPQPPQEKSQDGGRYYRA
# T1 sequence (P02466 86-1125 limits assumed, chain 2 of 2): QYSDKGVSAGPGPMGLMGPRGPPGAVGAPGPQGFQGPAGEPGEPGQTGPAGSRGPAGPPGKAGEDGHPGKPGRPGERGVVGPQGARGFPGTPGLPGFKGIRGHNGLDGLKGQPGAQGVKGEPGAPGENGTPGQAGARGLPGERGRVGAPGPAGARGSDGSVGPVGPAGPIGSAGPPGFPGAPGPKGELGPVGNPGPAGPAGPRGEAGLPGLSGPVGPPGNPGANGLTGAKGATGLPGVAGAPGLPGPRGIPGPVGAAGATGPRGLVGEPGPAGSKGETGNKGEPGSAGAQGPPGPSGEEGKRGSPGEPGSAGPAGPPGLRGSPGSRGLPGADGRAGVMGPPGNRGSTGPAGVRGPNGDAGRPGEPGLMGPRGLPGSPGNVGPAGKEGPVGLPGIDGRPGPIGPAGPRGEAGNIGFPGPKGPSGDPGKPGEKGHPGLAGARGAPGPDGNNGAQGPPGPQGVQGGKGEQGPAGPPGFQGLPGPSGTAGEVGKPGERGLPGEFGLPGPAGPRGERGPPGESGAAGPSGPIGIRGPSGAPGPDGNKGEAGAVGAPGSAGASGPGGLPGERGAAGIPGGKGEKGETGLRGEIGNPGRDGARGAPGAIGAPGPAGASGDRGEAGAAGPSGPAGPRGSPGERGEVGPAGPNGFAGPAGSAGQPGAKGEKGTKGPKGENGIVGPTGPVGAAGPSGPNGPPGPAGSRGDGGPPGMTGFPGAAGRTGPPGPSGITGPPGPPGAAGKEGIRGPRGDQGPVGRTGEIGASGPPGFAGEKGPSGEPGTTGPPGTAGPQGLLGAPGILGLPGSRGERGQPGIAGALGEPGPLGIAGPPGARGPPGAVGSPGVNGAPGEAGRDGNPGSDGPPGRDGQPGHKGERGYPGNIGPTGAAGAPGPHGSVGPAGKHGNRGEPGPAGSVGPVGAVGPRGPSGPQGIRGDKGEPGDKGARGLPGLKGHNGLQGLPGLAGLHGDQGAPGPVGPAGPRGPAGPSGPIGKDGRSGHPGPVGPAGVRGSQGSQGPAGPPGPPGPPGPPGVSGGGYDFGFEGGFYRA
# PROTOCOL_DETAILS: dried collagen assay
Bridge positions count the residues as written; N and C are the ends. Ends that are not written are not given here.
Lab note: anything with % bound below 2% is marked 1; values at 2% or higher are marked 0.

{"BINDER": "YHACYQAACWIW (disulfide 4-9 (inferred)) [SEQ ID NO: 135]", "ANSWER_LABEL": 0}
{"BINDER": "YHACYAAGCWIW (disulfide 4-9 (inferred)) [SEQ ID NO: 134]", "ANSWER_LABEL": 1}
{"BINDER": "AHACYQAGCWIW (disulfide 4-9 (inferred)) [SEQ ID NO: 131]", "ANSWER_LABEL": 0}
{"BINDER": "YHACYQAGCWIA (disulfide 4-9 (inferred)) [SEQ ID NO: 138]", "ANSWER_LABEL": 1}
{"BINDER": "YHACAQAGCWIW (disulfide 4-9 (inferred)) [SEQ ID NO: 133]", "ANSWER_LABEL": 0}
{"BINDER": "YAACYQAGCWIW (disulfide 4-9 (inferred)) [SEQ ID NO: 132]", "ANSWER_LABEL": 0}
